Sourced from BindingDB's records for doi:10.1021/jm990281p

IC50 for assorted compounds
Biological target: Gag-Pol polyprotein [489-587] (Human immunodeficiency virus 1)
Construct: 489-587
Test: Protease Inhibition Assay
Answer with a number only, understood to be in nM.

Known IC50 results, listed for orientation:
{"COMPOUND": "Cc1cc(SC2C(=O)CC(CCc3ccc(O)cc3)(C(C)C)OC2=O)c(C(C)(C)C)cc1NS(=O)(=O)c1ccc(F)cc1 (stereo not drawn)", "TEST_TARGET": "Gag-Pol polyprotein [489-587] (Human immunodeficiency virus 1)", "IC50 / nM": 4.1}
{"COMPOUND": "Cc1cc(SC2C(=O)CC(CCc3ccc(O)cc3)(C(C)C)OC2=O)c(C(C)(C)C)cc1NS(C)(=O)=O (stereo not drawn)", "TEST_TARGET": "Gag-Pol polyprotein [489-587] (Human immunodeficiency virus 1)", "IC50 / nM": 4}
{"COMPOUND": "Cc1cc(SC2C(=O)CC(CCc3ccccc3)(C(C)C)OC2=O)c(C(C)(C)C)cc1OS(=O)(=O)c1cccnc1 (stereo not drawn)", "TEST_TARGET": "Gag-Pol polyprotein [489-587] (Human immunodeficiency virus 1)", "IC50 / nM": 14}
{"COMPOUND": "Cc1cc(SC2C(=O)C[C@@](CCc3ccc(O)cc3)(C(C)C)OC2=O)c(C(C)(C)C)cc1OS(C)(=O)=O (stereo partly drawn)", "TEST_TARGET": "Gag-Pol polyprotein [489-587] (Human immunodeficiency virus 1)", "IC50 / nM": 2.2}

Cc1cc(SC2C(=O)CC(CCc3ccc(O)cc3)(C(C)C)OC2=O)c(C(C)(C)C)cc1OS(=O)(=O)N(C)C (stereo not drawn) [6-Alkyl-5,6-Dihydropyran-2-one 22] has a reported IC50 of 3.4

Cc1cc(SC2C(=O)CC(CCc3ccc(O)cc3)(C(C)C)OC2=O)c(C(C)(C)C)cc1OS(=O)(=O)c1ccc(F)cc1 (stereo not drawn) has a reported IC50 of 9.6

Cc1cc(SC2C(=O)CC(CCc3ccc(N)cc3)(C(C)C)OC2=O)c(C(C)(C)C)cc1OS(=O)(=O)c1cccnc1 (stereo not drawn) has a reported IC50 of 4.1

Cc1cc(SC2C(=O)CC(CCc3ccc(O)cc3)(C(C)C)OC2=O)c(C(C)(C)C)cc1OS(=O)(=O)c1cccs1 (stereo not drawn) has a reported IC50 of 21.8

###

Target: Dimer of Gag-Pol polyprotein [489-587] (Human immunodeficiency virus 1, UniProt P12497)
Construct: 489-587
Assay: Protease Inhibition Assay
pKi for assorted compounds
The value called pKi is obtained by taking minus log10 of the concentration in mol/L.

Known pKi results, listed for orientation:
{"COMPOUND": "Cc1cc(SC2C(=O)C[C@](CCc3ccc(O)cc3)(C(C)C)OC2=O)c(C(C)(C)C)cc1N (some centres not stated)", "TEST_TARGET": "Dimer of Gag-Pol polyprotein [489-587] (Human immunodeficiency virus 1, UniProt P12497)", "pKi": 7.89}
{"COMPOUND": "Cc1cc(SC2C(=O)C[C@](CCc3ccc(O)cc3)(C(C)C)OC2=O)c(C(C)(C)C)cc1NS(=O)(=O)c1ccc(C(F)(F)F)cn1 (some centres not stated)", "TEST_TARGET": "Dimer of Gag-Pol polyprotein [489-587] (Human immunodeficiency virus 1, UniProt P12497)", "pKi": 8.02}
{"COMPOUND": "Cc1cc(SC2C(=O)CC(CCc3ccccc3)(C(C)C)OC2=O)c(C(C)(C)C)cc1NS(=O)(=O)c1ccc(C(F)(F)F)cn1 (configuration not stated)", "TEST_TARGET": "Dimer of Gag-Pol polyprotein [489-587] (Human immunodeficiency virus 1, UniProt P12497)", "pKi": 8.98}
{"COMPOUND": "Cc1cc(SC2C(=O)C[C@@](CCc3ccccc3)(C(C)C)OC2=O)c(C(C)(C)C)cc1NS(=O)(=O)c1ccc(C#N)cc1 (some centres not stated)", "TEST_TARGET": "Dimer of Gag-Pol polyprotein [489-587] (Human immunodeficiency virus 1, UniProt P12497)", "pKi": 9.70}
{"COMPOUND": "Cc1cc(SC2C(=O)C[C@](CCc3ccccc3)(C(C)C)OC2=O)c(C(C)(C)C)cc1NS(=O)(=O)c1ccc(C(F)(F)F)cn1 (some centres not stated)", "TEST_TARGET": "Dimer of Gag-Pol polyprotein [489-587] (Human immunodeficiency virus 1, UniProt P12497)", "pKi": 8.19}

Cc1cc(SC2C(=O)C[C@@](CCc3ccc(O)cc3)(C(C)C)OC2=O)c(C(C)(C)C)cc1OS(C)(=O)=O (some centres not stated) has a reported pKi of 10.52

Cc1cc(SC2C(=O)C[C@@](CCc3ccc(O)cc3)(C(C)C)OC2=O)c(C(C)(C)C)cc1N (some centres not stated) has a reported pKi of 10.15
